Provenance of the data: patent US20040253247A1

EXPERIMENTAL_TARGET: T1, IgG-Fc (UniProt P01857-1 108-330 = IgG part, limits assumed)
T1 construct: domain: IgG-Fc; also called biotinylated-IgG-Fc; biotin-IgG-Fc
EXPERIMENT_SUMMARY: phage ELISA, M13/gIII display
Use EC50 to assign classes; range list: class 0 (below 50 nM), class 1 (50 nM to below 200 nM), class 2 (200 nM or more)

Here's what some known entries look like.
BINDER: KEASCSYWLGELVWCDGLDE (M13/gIII phage display; Focused Libraries) [phage clone KEASCSYWLGELVWCDGLDE]
LABEL_VALUE: class 2

BINDER: WVEDCAWHMGELVWCTKVDE (M13/gIII phage display; Secondary Optimization) [phage clone WVEDCAWHMGELVWCTKVDE]
LABEL_VALUE: class 1

BINDER: KEASCSYHLGELVWCVAGVE (M13/gIII phage display; Focused Libraries) [phage clone KEASCSYHLGELVWCVAGVE]
LABEL_VALUE: class 2

BINDER: RVEDCAYHLGELVWCTEGDE (M13/gIII phage display; Secondary Optimization) [phage clone RVEDCAYHLGELVWCTEGDE]
LABEL_VALUE: class 1

We now examine a further binder.
Query: Lab log: GEQDCSYHMGELVWCTTVDG (M13/gIII phage display; Secondary Optimization) [phage clone GEQDCSYHMGELVWCTTVDG] — assign EC50 category
Response: class 2
